Reference source: paper PMC5215849

system: ZIKV Malaysian P 6-740; test: Virus yield reduction; details: human
Listing of recorded selectivity ratio by entry.
When you answer, write just the number.

Nc1ncnc2c([C@@H]3N[C@H](CO)[C@@H](O)[C@H]3O)c[nH]c12; 20.5

Alright, here's another compound for you.
Exam item: Sample NC(=O)c1ncn([C@@H]2O[C@H](CO)[C@@H](O)[C@H]2O)n1 [Ribavirin, reference compound] — what was its selectivity ratio?
Marked response: 24.5

----------
Listing of recorded selectivity ratio by entry.
test system: ZIKV Malaysian P 6-740; experiment: Virus yield reduction; conditions: African green monkey
When you answer, write just the number.

Nc1ncnc2c([C@@H]3N[C@H](CO)[C@@H](O)[C@H]3O)c[nH]c12 [BCX4430]; 7.3

Alright, here's another compound for you.
Exam item: Sample NC(=O)c1ncn([C@@H]2O[C@H](CO)[C@@H](O)[C@H]2O)n1 [Ribavirin, reference compound] — what was its selectivity ratio?
Marked response: 1.6
